src = the supplement of paper PMC11061612

- Tested on: OV-56 (Ovarian Carcinoma)
- Test protocol: combination Emax (second highest fraction inhibited in the dose matrix, 72 h); higher = more inhibition; extreme values may be limits of the assay
Examples of compounds with documented combination Emax follow.
Respond numerically, and do not add a unit to the figure.

Below, each entry is followed by its recorded combination Emax result.
compound="C[C@@H](c1ccc2nccn2c1)n1nnc2ncc(-c3cnn(C)c3)nc21 [Savolitinib] + CC1(C)CCC(CN2CCN(c3ccc(C(=O)NS(=O)(=O)c4ccc(NCC5CCOCC5)c([N+](=O)[O-])c4)c(Oc4cnc5[nH]ccc5c4)c3)CC2)=C(c2ccc(Cl)cc2)C1 [Venetoclax] (first compound max 1 µM, 7x7, partner max 1 µM)" measured_number=0.158
compound="Cc1c2c(nn1C)CSCc1cc(n(C)n1)CSc1cc(c3ccccc3c1)OCCCc1c(C(=O)O)n(C)c3c-2c(Cl)ccc13 [AZD5991] + CN(C)CCCOc1ccc(-c2ccc3ncc4c(c3c2)n(C2CCOCC2)c(=O)n4C)cn1 [AZD0156] (first compound max 1 µM, 7x7, partner max 1 µM)" measured_number=0.181

Kindly consider the entry below.
**Q:** Give a short answer stating reported combination Emax for COc1nnc2ccc(N3CCC(c4ccc(OCCN5CCN(C)C(=O)[C@H]5C)cc4)CC3)nn12 [AZD5153] + C=CCn1c(=O)c2cnc(Nc3ccc(N4CCN(C)CC4)cc3)nc2n1-c1cccc(C(C)(C)O)n1 [AZD1775] (first compound max 1 µM, partner max 1 µM) .
**A:** 0.279

* * *

Examples of compounds with documented Bliss excess follow.
- Test system: KMRC-20 (Kidney Carcinoma)
- Test protocol: Bliss excess, mean over the matrix (fraction); higher = more synergy
Respond numerically, and do not add a unit to the figure.

compound="Cc1cc2ncnn2cc1Nc1ncc2c(n1)n(C1CCOCC1)c(=O)n2C [AZD7648] + CCN(CCO)CCCOc1ccc2c(Nc3cc(CC(=O)Nc4cccc(F)c4)[nH]n3)ncnc2c1 [AZD2811] (first compound max 10 µM, 7x7, partner max 1 µM)" tested_on="KMRC-20 (Kidney Carcinoma)" parameter_measured="Bliss excess" measured_number=0.026
compound="NC1(C(=O)N[C@@H](CCO)c2ccc(Cl)cc2)CCN(c2ncnc3[nH]ccc23)CC1 [Capivasertib] + CC(C)n1c(=O)n(C)c2cnc3cc(F)c(-c4ccc(OCCCN5CCCCC5)nc4)cc3c21 [AZD1390] (first compound max 10 µM, 7x7, partner max 0.3 µM)" tested_on="KMRC-20 (Kidney Carcinoma)" parameter_measured="Bliss excess" measured_number=-0.0651
compound="CN(CCO)CC[C@H](CSc1ccccc1)Nc1ccc(S(=O)(=O)NC(=O)c2ccc(N3CCC([C@@H](O)c4ccccc4-c4ccc(Cl)cc4)CC3)cc2)cc1S(=O)(=O)C(F)(F)F [AZD4320] + C=CCn1c(=O)c2cnc(Nc3ccc(N4CCN(C)CC4)cc3)nc2n1-c1cccc(C(C)(C)O)n1 [AZD1775] (first compound max 1 µM, partner max 1 µM)" tested_on="KMRC-20 (Kidney Carcinoma)" parameter_measured="Bliss excess" measured_number=0.0331
compound="CCc1c2c(nc3ccc(O)cc13)-c1cc3c(c(=O)n1C2)COC(=O)[C@]3(O)CC [SN-38] + CN(C)CCCOc1ccc(-c2ccc3ncc4c(c3c2)n(C2CCOCC2)c(=O)n4C)cn1 [AZD0156] (first compound max 0.3 µM, 7x7, partner max 1 µM)" tested_on="KMRC-20 (Kidney Carcinoma)" parameter_measured="Bliss excess" measured_number=-0.0156
compound="COc1cccc(OCCCN)c1-c1cc(Nc2cnc(C#N)cn2)n[nH]1 [Prexasertib] + C=CCn1c(=O)c2cnc(Nc3ccc(N4CCN(C)CC4)cc3)nc2n1-c1cccc(C(C)(C)O)n1 [AZD1775] (first compound max 1 µM, partner max 1 µM)" tested_on="KMRC-20 (Kidney Carcinoma)" parameter_measured="Bliss excess" measured_number=-0.0104

**Q:** Give a short answer stating reported Bliss excess for CN(C)CCCOc1ccc(-c2ccc3ncc4c(c3c2)n(C2CCOCC2)c(=O)n4C)cn1 [AZD0156] + CCN(CCO)CCCOc1ccc2c(Nc3cc(CC(=O)Nc4cccc(F)c4)[nH]n3)ncnc2c1 [AZD2811] (first compound max 1 µM, 7x7, partner max 1 µM) .
**A:** -0.0499

**Q:** Give a short answer stating reported Bliss excess for CC1(C)CCC(CN2CCN(c3ccc(C(=O)NS(=O)(=O)c4ccc(NCC5CCOCC5)c([N+](=O)[O-])c4)c(Oc4cnc5[nH]ccc5c4)c3)CC2)=C(c2ccc(Cl)cc2)C1 [Venetoclax] + COc1cc(Nc2ncc3c(n2)-c2ccc(Cl)cc2C(c2c(F)cccc2OC)=NC3)ccc1C(=O)O [Alisertib] (first compound max 1 µM, 7x7, partner max 10 µM) .
**A:** 0.0226

* * *

- Tested on: HuH-7 (Hepatocellular Carcinoma)
- Test protocol: combination Emax (second highest fraction inhibited in the dose matrix, 72 h); higher = more inhibition; extreme values may be limits of the assay
Parameter measured: combination Emax

Below, each entry is followed by its recorded combination Emax result.
molecule="Cc1cc2ncnn2cc1Nc1ncc2c(n1)n(C1CCOCC1)c(=O)n2C [AZD7648] + C=CCn1c(=O)c2cnc(Nc3ccc(N4CCN(C)CC4)cc3)nc2n1-c1cccc(C(C)(C)O)n1 [AZD1775] (first compound max 10 µM, partner max 1 µM)" tested_on="HuH-7 (Hepatocellular Carcinoma)" parameter_measured="combination Emax" result=0.252
molecule="NC1(C(=O)N[C@@H](CCO)c2ccc(Cl)cc2)CCN(c2ncnc3[nH]ccc23)CC1 [Capivasertib] + CCN(CCO)CCCOc1ccc2c(Nc3cc(CC(=O)Nc4cccc(F)c4)[nH]n3)ncnc2c1 [AZD2811] (first compound max 10 µM, 7x7, partner max 1 µM)" tested_on="HuH-7 (Hepatocellular Carcinoma)" parameter_measured="combination Emax" result=0.225

**Q:** Give a short answer stating reported combination Emax for CN(CCO)CC[C@H](CSc1ccccc1)Nc1ccc(S(=O)(=O)NC(=O)c2ccc(N3CCC([C@@H](O)c4ccccc4-c4ccc(Cl)cc4)CC3)cc2)cc1S(=O)(=O)C(F)(F)F [AZD4320] + C=CCn1c(=O)c2cnc(Nc3ccc(N4CCN(C)CC4)cc3)nc2n1-c1cccc(C(C)(C)O)n1 [AZD1775] (first compound max 1 µM, partner max 1 µM) .
**A:** 0.729

* * *

- Tested on: NCI-H524 (Small Cell Lung Carcinoma)
- Test protocol: combination Emax (second highest fraction inhibited in the dose matrix, 72 h); higher = more inhibition; extreme values may be limits of the assay
Parameter measured: combination Emax
Respond numerically, and do not add a unit to the figure.

compound="CN(CCO)CC[C@H](CSc1ccccc1)Nc1ccc(S(=O)(=O)NC(=O)c2ccc(N3CCC([C@@H](O)c4ccccc4-c4ccc(Cl)cc4)CC3)cc2)cc1S(=O)(=O)C(F)(F)F [AZD4320] + CCN(CCO)CCCOc1ccc2c(Nc3cc(CC(=O)Nc4cccc(F)c4)[nH]n3)ncnc2c1 [AZD2811] (first compound max 1 µM, 7x7, partner max 1 µM)" tested_on="NCI-H524 (Small Cell Lung Carcinoma)" measured_number=0.995

Kindly consider the entry below.
**Q:** Give a short answer stating reported combination Emax for N#Cc1cnc(Nc2cc(NC[C@H]3CNCCO3)c(C(F)(F)F)cn2)cn1 [SRA737] + CCc1c2c(nc3ccc(O)cc13)-c1cc3c(c(=O)n1C2)COC(=O)[C@]3(O)CC [SN-38] (first compound max 10 µM, 7x7, partner max 0.3 µM) .
**A:** 0.938

* * *

- Tested on: TGBC1TKB (Biliary Tract Carcinoma)
- Test protocol: Bliss excess, mean over the matrix (fraction); higher = more synergy
Each entry gets false (0) if its Bliss excess stays under 0.02, and true (1) if its Bliss excess is 0.02 or above.

compound="COc1nnc2ccc(N3CCC(c4ccc(OCCN5CCN(C)C(=O)[C@H]5C)cc4)CC3)nn12 [AZD5153] + C=CCn1c(=O)c2cnc(Nc3ccc(N4CCN(C)CC4)cc3)nc2n1-c1cccc(C(C)(C)O)n1 [AZD1775] (first compound max 1 µM, partner max 1 µM)" assigned_category="false (0)"

**Q:** Would you say CS(=O)(=O)CCNCc1ccc(-c2ccc3ncnc(Nc4ccc(OCc5cccc(F)c5)c(Cl)c4)c3c2)o1 [Lapatinib] + C[C@@H](Oc1cc(-c2cnn(C3CCNCC3)c2)cnc1N)c1c(Cl)ccc(F)c1Cl [Crizotinib] (first compound max 10 µM, 7x7, partner max 10 µM) shows Bliss excess at minimum 0.02?
**A:** false (0)

**Q:** Would you say C[C@@H](Nc1cc(F)cc(F)c1)c1cc(C(=O)N(C)C)cc2c(=O)cc(N3CCOCC3)oc12 [AZD8186] + CC(=O)c1c(C)c2cnc(Nc3ccc(N4CCNCC4)cn3)nc2n(C2CCCC2)c1=O [Palbociclib] (first compound max 10 µM, 7x7, partner max 10 µM) shows Bliss excess at minimum 0.02?
**A:** true (1)

**Q:** Would you say Cc1nc(Nc2ncc(C(=O)Nc3c(C)cccc3Cl)s2)cc(N2CCN(CCO)CC2)n1 [Dasatinib] + CC(=O)Nc1cccc(-n2c(=O)n(C3CC3)c(=O)c3c(Nc4ccc(I)cc4F)n(C)c(=O)c(C)c32)c1 [Trametinib] (first compound max 2 µM, 7x7, partner max 1 µM) shows Bliss excess at minimum 0.02?
**A:** true (1)
